- experimental_target: GSK3B (Homo sapiens, UniProt P49841)
- Sequence (P49841 whole entry): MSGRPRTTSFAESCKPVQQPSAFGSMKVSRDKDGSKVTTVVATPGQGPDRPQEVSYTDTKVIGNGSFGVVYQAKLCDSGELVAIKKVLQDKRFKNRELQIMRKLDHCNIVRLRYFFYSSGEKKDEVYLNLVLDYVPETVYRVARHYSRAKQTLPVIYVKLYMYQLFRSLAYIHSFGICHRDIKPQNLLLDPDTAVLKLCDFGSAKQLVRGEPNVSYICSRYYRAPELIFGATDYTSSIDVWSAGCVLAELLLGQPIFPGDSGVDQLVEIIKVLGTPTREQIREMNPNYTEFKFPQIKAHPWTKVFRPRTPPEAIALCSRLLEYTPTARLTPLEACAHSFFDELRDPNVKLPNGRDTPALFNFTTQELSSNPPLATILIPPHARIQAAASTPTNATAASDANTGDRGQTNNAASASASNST
- protocol_details: In vitro enzymatic activity assay, GSK3β
- Type: biochemical
- Set-up: Full length human GSK3α or GSK3B expressed as N-terminal GST fusion proteins; GST (N); purchased Carna Biosciences (Japan); host or cells: baculovirus host
- run_conditions: Enzyme GSK3β (IC50), 1.0 mM ATP, 1.0 μM peptide substrate, 120 min, 25° C
measurement_kind: IC50 (µM)

I = Nc1ncn(-c2c(O)cccc2Cl)c(=O)c1C(=O)Nc1cncc([C@@H]2CCCCN2)c1 [Example 173]
II = CCOc1cc(C)c(-n2cnc(N)c(C(=O)Nc3cnnc(C(N)=O)c3)c2=O)c(C)c1 [Example 29]
III = Cc1cc(CC(=O)O)cc(C)c1-n1cnc(N)c(C(=O)Nc2cncc([C@H]3CCCCN3)c2)c1=O [Example 207]
[in] List these items ordered by IC50, big to small. Give me the labels in the order the question wants.
[out] I, II, III

----------
- experimental_target: GSK3B (Homo sapiens)
- protocol_details: NanoBRET cellular target engagement assay, Nanoluc-GSK3B in HEK293 cells
- Type: cell-based
- Parameters: expressed in transfected cells
- run_conditions: NanoBRET GSK3β IC50, HEK293 cells, tracer K-8, 2 hours, 37° C
pIC50: −log10 of the molar value.
measurement_kind: pIC50

Sample records with pIC50:
{"molecule": "CCNCc1cncc(NC(=O)c2c(N)ncn(-c3c(Cl)cc(OC(F)F)cc3Cl)c2=O)c1 [Example 10]", "pIC50": 6.43}
{"molecule": "Cc1cc(C(F)(F)F)cc(C)c1-n1cnc(N)c(C(=O)Nc2cncc(C3CCCC(C)N3)c2)c1=O (single isomer, unassigned) [Example 90]", "pIC50": 6.15}
{"molecule": "CCOc1cc(Cl)c(-n2cnc(N)c(C(=O)Nc3cncc(C(N)COC)c3)c2=O)c(Cl)c1 (single isomer, unassigned) [Example 134]", "pIC50": 6.69}

A = COc1cc(C)c(-n2cnc(N)c(C(=O)N[C@@H]3CCC[C@H](CN)C3)c2=O)c(Cl)c1 (single isomer, unassigned) [Example 206]
B = Nc1ncn(-c2c(Cl)cccc2Cl)c(=O)c1C(=O)Nc1cncc([C@H]2CCOCCN2)c1 (single isomer, unassigned) [Example 215]
C = COc1cc(Cl)c(-n2cnc(N)c(C(=O)Nc3cncc([C@]4(N)CCCOC4)c3)c2=O)c(Cl)c1 (single isomer, unassigned) [Example 188]
[in] With regard to pIC50, arrange the entries in ascending order, please. Labels, ranked as asked.
[out] B, C, A
(B: 6.16, C: 6.46, A: 6.86)

----------
- experimental_target: human GSK3α (Homo sapiens)
- Construct: Full length human GSK3α or GSK3B expressed as N-terminal GST fusion proteins; GST (N); purchased Carna Biosciences (Japan); host or cells: baculovirus host
- protocol_details: In vitro enzymatic activity assay, GSK3α
- Type: biochemical
- run_conditions: 1.0 mM ATP, 1.0 μM peptide substrate, 120 min, 25° C, read-out: Enzyme GSK3α (IC50)
measurement_kind: IC50 (nM)

Some entries whose results are on file:
{"molecule": "Nc1ncn(-c2c(Cl)cc(Cl)cc2Cl)c(=O)c1C(=O)Nc1cncc([C@@H]2CCCCN2)c1", "measurement_kind": "IC50", "recorded_result": 5.2}
{"molecule": "CCNCc1cncc(NC(=O)c2c(N)ncn(-c3c(C)cc(CC(F)F)cc3C)c2=O)c1", "measurement_kind": "IC50", "recorded_result": 34.9}

1 = CCOc1cc(Cl)c(-n2cnc(N)c(C(=O)Nc3cncc([C@@H](C)N)n3)c2=O)c(Cl)c1 (single isomer, unassigned)
2 = Nc1ncn(-c2c(Cl)cc(C(F)(F)F)cc2Cl)c(=O)c1C(=O)Nc1cncc([C@@H]2CCCN2)c1
[in] Which of these two has the smaller recorded IC50: 1 or 2 ? Reply briefly: the label of your chosen item.
[out] 1

----------
- experimental_target: GSK3B (Homo sapiens)
- protocol_details: NanoBRET cellular target engagement assay, Nanoluc-GSK3B in HEK293 cells
- Format: cell-based
- Parameters: expressed in transfected cells
- run_conditions: NanoBRET GSK3β IC50, HEK293 cells, tracer K-8, 2 hours, 37° C
measurement_kind: IC50 (nM)

{"compound": "CCC(N)c1cncc(NC(=O)c2c(N)ncn(-c3c(C)cc(C(F)(F)F)cc3C)c2=O)c1 (single isomer, unassigned) [Example 88]", "readout_units": "nM", "IC50": 454}
{"compound": "CCNCc1cncc(NC(=O)c2c(N)ncn(-c3c(Cl)cc(-c4ncco4)cc3Cl)c2=O)c1 [Example 201]", "readout_units": "nM", "IC50": 430}
{"compound": "COC[C@@H](N)c1cncc(NC(=O)c2c(N)ncn(-c3c(Cl)cc(C#N)cc3Cl)c2=O)c1 (single isomer, unassigned) [Example 44]", "readout_units": "nM", "IC50": 518}
{"compound": "[2H]C([2H])([2H])NC(C)c1cncc(NC(=O)c2c(N)ncn(-c3c(C)cc(C(F)(F)F)cc3Cl)c2=O)c1 (single isomer, unassigned) [Example 16]", "readout_units": "nM", "IC50": 132}
{"compound": "COCc1cc(Cl)c(-n2cnc(N)c(C(=O)Nc3cncc([C@@H]4CCCCN4)c3)c2=O)c(Cl)c1 [Example 61]", "readout_units": "nM", "IC50": 284}

a = CCNCc1cncc(NC(=O)c2c(N)ncn(-c3c(Cl)cc(CC(F)F)cc3Cl)c2=O)c1 [Example 203]
b = Nc1ncn(-c2c(Cl)cccc2Cl)c(=O)c1C(=O)Nc1cncc([C@@H]2CCCN2)c1 [Example 40]
c = COc1cc(Cl)c(-n2cnc(N)c(C(=O)Nc3cncc(C4(N)CCCC4)c3)c2=O)c(Cl)c1 [Example 21]
d = Nc1ncn(-c2c(Cl)cccc2Cl)c(=O)c1C(=O)Nc1cccc([C@@H]2CNC(=O)CN2)c1 (single isomer, unassigned) [Example 189]
e = COCc1cc(Cl)c(-n2cnc(N)c(C(=O)Nc3cncc([C@@H](C)N)c3)c2=O)c(Cl)c1 (single isomer, unassigned) [Example 67]
[in] Arrange by IC50, high to low. Returns: the labels arranged in the requested order.
[out] d, b, a, c, e

----------
- experimental_target: GSK3B (Homo sapiens, UniProt P49841)
- protocol_details: In vitro enzymatic activity assay, GSK3β
- Type: biochemical
- Set-up: Full length human GSK3α or GSK3B expressed as N-terminal GST fusion proteins; GST (N); purchased Carna Biosciences (Japan); host or cells: baculovirus host
- run_conditions: 1.0 mM ATP, 1.0 μM peptide substrate, 120 min, 25° C, read-out: Enzyme GSK3β (IC50)
measurement_kind: IC50 (nM)

Look over these answered cases.
{"molecule": "CN(C)c1cc(Cl)c(-n2cnc(N)c(C(=O)Nc3cncc([C@@H]4CCCCN4)c3)c2=O)c(Cl)c1 [Example 123]", "measurement_kind": "IC50", "recorded_result": 266}
{"molecule": "CNCc1cncc(NC(=O)c2c(N)ncn(-c3c(Cl)cc(C(F)CF)cc3Cl)c2=O)c1 (single isomer, unassigned) [Example 116]", "measurement_kind": "IC50", "recorded_result": 125}
{"molecule": "CCOCC(N)c1cncc(NC(=O)c2c(N)ncn(-c3c(Cl)cc(OCC)cc3Cl)c2=O)c1 (single isomer, unassigned) [Example 140]", "measurement_kind": "IC50", "recorded_result": 1240}
{"molecule": "CCOc1cc(C)c(-n2cnc(N)c(C(=O)Nc3cncc(C4CCCCCN4)c3)c2=O)c(C)c1 (single isomer, unassigned) [Example 95]", "measurement_kind": "IC50", "recorded_result": 465}

P = CCOc1cc(Cl)c(-n2cnc(N)c(C(=O)Nc3cncc(C(C)NC)c3)c2=O)c(Cl)c1 (single isomer, unassigned) [Example 24]
Q = Nc1ncn(-c2c(Cl)cccc2Cl)c(=O)c1C(=O)Nc1cccc(C2CCCN2)c1F (single isomer, unassigned) [Example 167]
[in] Out of P and Q , name the one with the higher IC50. I would appreciate it if you answered with the label of your choice.
[out] Q
(Q: 1810 nM, P: 298 nM)

----------
- experimental_target: GSK3A (Homo sapiens, UniProt P49840)
- Sequence (P49840 whole entry): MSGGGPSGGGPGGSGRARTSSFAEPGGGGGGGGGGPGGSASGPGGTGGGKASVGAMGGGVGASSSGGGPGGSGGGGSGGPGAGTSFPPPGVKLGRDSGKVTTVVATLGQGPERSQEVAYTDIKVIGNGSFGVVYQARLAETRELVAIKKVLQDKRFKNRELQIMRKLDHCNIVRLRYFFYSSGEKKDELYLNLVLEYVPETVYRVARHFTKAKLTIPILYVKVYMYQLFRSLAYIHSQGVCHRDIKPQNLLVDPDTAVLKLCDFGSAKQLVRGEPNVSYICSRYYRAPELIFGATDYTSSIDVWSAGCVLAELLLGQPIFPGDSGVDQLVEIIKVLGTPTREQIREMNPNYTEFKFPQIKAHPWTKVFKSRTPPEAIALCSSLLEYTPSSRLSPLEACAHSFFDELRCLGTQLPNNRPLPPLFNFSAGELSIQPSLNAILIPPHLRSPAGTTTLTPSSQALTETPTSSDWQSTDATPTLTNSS
- protocol_details: NanoBRET cellular target engagement assay, Nanoluc-GSK3A in HEK293 cells
- run_conditions: NanoBRET GSK3α IC50, HEK293 cells, tracer K-8, 2 hours, 37° C
pIC50: −log10 of the molar value.
measurement_kind: pIC50

{"molecule": "Cc1cc(C#N)cc(Cl)c1-n1cnc(N)c(C(=O)Nc2cccc([C@@H](C)N)c2)c1=O (atropisomer, axis not shown)", "pIC50": 8.48}
{"molecule": "Cc1cc(C(F)F)cc(C)c1-n1cnc(N)c(C(=O)Nc2cncc(C3CCCC(C)N3)c2)c1=O (single isomer, unassigned)", "pIC50": 8.41}
{"molecule": "Cc1cc(C(F)CF)cc(C)c1-n1cnc(N)c(C(=O)Nc2cncc(C3CCCCCN3)c2)c1=O (single isomer, unassigned) [Example 112]", "pIC50": 8.29}
{"molecule": "COCc1cc(Cl)c(-n2cnc(N)c(C(=O)Nc3cncc([C@H](N)CC(F)F)c3)c2=O)c(Cl)c1 (single isomer, unassigned)", "pIC50": 8.62}

a = CCNCc1cncc(NC(=O)c2c(N)ncn(-c3c(Cl)cc(CC(F)F)cc3Cl)c2=O)c1
b = Nc1ncn(-c2c(Cl)cc(OC(F)F)cc2Cl)c(=O)c1C(=O)Nc1cncc([C@@H]2CCCCN2)c1
c = COCc1cc(Cl)c(-n2cnc(N)c(C(=O)Nc3cncc(C(C)(C)N)c3)c2=O)c(Cl)c1
[in] Please list the entries, largest pIC50 first. Give the labels in the order specified.
[out] c, a, b

Entry source: patent US20260327191A1
